- method_summary: in vivo
- test_parameters: BALB/c, mouse, sc, 0.125 mg/kg, Cmax
metric_name: Cmax (ng/mL)
# value in ng/mL; strip the unit string

Give the value of Cmax reported for the following: O=C1c2c(O)c(=O)ccn2N([C@@H]2c3ccccc3SCc3c2ccc(F)c3F)[C@@H]2COCCN12
18.7

----------
- method_summary: in vivo
- test_parameters: BALB/c, mouse, sc, 0.5 mg/kg, AUC0–24
metric_name: AUC(0-t) (ng·h/mL)
# value in ng·h/mL; strip the unit string

Give the value of AUC(0-t) reported for the following: O=C1c2c(O)c(=O)ccn2N([C@@H]2c3ccccc3SCc3c2ccc(F)c3F)[C@@H]2COCCN12
961

Reference for the values: paper PMC10222987
